System: MALME-3M melanoma
Assay: NCI-60 one-dose screen, 48 h
Conditions: 10 µM unless noted
Compounds without any hit were thinned out: in the full panel of roughly 83,000, 20% have a hit. The source made the active and inactive calls. How the source made its calls: active means growth percent below 10; inactive means the rest.
Labels: TRUE for active, FALSE for inactive

>>> df
                                    compound  assigned_label
 0         CCCCCCN(CCCCCC)CCCNc1nccc2ccccc12            TRUE
 1  O=C(c1ccccc1)N(CCCl)C(=O)N(CCCl)C(=O)c1ccccc1           FALSE
 2  CCOc1ccc(C(C[N+](=O)[O-])Sc2ccccc2N)cc1 (configuration not stated)           FALSE
 3                    S=c1[nH]c2cc(Cl)ccc2s1           FALSE
 4        CCOC(=O)c1[nH]c(C#N)c(C(=O)OCC)c1C           FALSE
 5  O=C1C=CC(O)=CC1=P(c1ccccc1)(c1ccccc1)c1ccccc1           FALSE
 6       O=[n+]1c2ccccc2n([O-])c2cc(Cl)ccc21           FALSE
 7         O=[N+]([O-])C=C(c1ccccc1)c1ccccc1           FALSE
 8          c1ccc2sc(SSN3CC4CCC(CC4)C3)nc2c1           FALSE
 9  COc1ccc2nc3cc(Cl)ccc3c(NCCCCCN3CCCCC3)c2c1            TRUE
10          CCC(=O)c1cc([N+](=O)[O-])c(Br)s1           FALSE
11        CN(C)c1ccc(/C=C/c2ccnc3ccccc23)cc1           FALSE

###

System: SK-OV-3 ovarian
Experiment: NCI-60 one-dose screen, 48 h (100 = growth as untreated, 0 = no growth, -100 = all killed)
Details: 10 µM unless noted
This is part of a sample that, as a whole, favours compounds with a hit. Of some 83,000 tested, about 20% had one in any assay. *1 amine or outer side, *2 acyl side, *3 side chain or, on linkers, in order; H or OH if unused. Where a SMILES comes first, the peptide text is derived from it. Bridges are numbered along the chain shown (N, C = ends). Roman numbers before positions name the chains, in order. [ ]: non-standard residue; d: D form. Actinocin(1to9) = Cc1c2oc3c(C)ccc(C(=O)[*:2])c3nc-2c(C(=O)[*:1])c(N)c1=O; NMeV = CN[CH](C(=O)O)C(C)C; Sar = CNCC(=O)O
Each item that follows carries a reported growth.
quantity.name: growth (%)

compound	quantity.name	observed.value
COC(=O)c1cc([N+](=O)[O-])cc([N+](=O)[O-])c1Cl	growth	102
O=[N+]([O-])c1ccc(C(Br)c2ccc([N+](=O)[O-])cc2)cc1	growth	97.3
CN(C)CCSC1=Nc2ccc(Cl)cc2C(c2ccccc2Cl)N(C)C1 (stereo not given)	growth	72
CCC(C)C1NC(=O)C(NC(=O)c2c3nc4c(C(=O)NC5C(=O)NC(C(C)CC)C(=O)N6CCCC6C(=O)N(C)CC(=O)N(C)C(C(C)C)C(=O)OC5C)ccc(C)c4oc-3c(C)c(=O)c2N)C(C)OC(=O)C(C(C)C)N(C)C(=O)CN(C)C(=O)C2CCCN2C1=O (stereo not given) (I: TIP[Sar][NMeV] / II: TIP[Sar][NMeV]; ester I:1-I:C, II:1-II:C; linker I:N-II:N via Actinocin(1to9); configuration not given here)	growth	18.2
O=C/C=C/c1ccc([N+](=O)[O-])cc1	growth	89.5
COc1cc(NCc2ccc3nc(N)nc(N)c3c2C)cc(OC)c1OC (tested in a mixture with another compound)	growth	58
CCCCCCCCc1cc(Cl)c(O)c(Cl)c1	growth	101
NC(=S)N/N=C/c1ncccc1O	growth	47.3
O=[N+]([O-])c1ccc(N2CCN(Cc3ccccc3)CC2)c2c1no[n+]2[O-]	growth	58.4
CCN1/C(=C/C(C)=C/c2sc3ccc4ccccc4c3[n+]2CC)Sc2ccc3ccccc3c21	growth	-99
CN1CCC(CN2c3ccccc3Sc3ccccc32)C1 (stereo not given)	growth	109
COc1c(C)c2c(c(O)c1C/C=C(\C)CCC(=O)O)C(=O)OC2	growth	45.2
COC(=O)c1ccc(=O)c2nc3/c(=C/O)c(O)cc(=O)c3[nH]c12	growth	52
COc1ccc2nc3cc(Cl)ccc3c(NCCCCCN3CCCCC3)c2c1	growth	-15.2
CCCCN(CCCC)CCCCCCCCCCO	growth	109
CCC(C)(O)Cc1ccc(Cl)cc1 (stereo not given)	growth	103
COc1ccc2c(c1)c(CC(=O)O)c(C)n2C(=O)c1ccc(Cl)cc1	growth	119
COC(=O)C(=[N+]=[N-])C(=O)c1ccc([N+](=O)[O-])o1	growth	97.2
NNc1ccc(Cl)cc1Cl	growth	69.7
Cc1cc2cccnc2c2ncccc12	growth	1.57

Provenance of the data: PubChem BioAssay (NCI)
